tested on: HS 578T breast; test: NCI-60 one-dose screen, 48 h; conditions: 10 µM unless noted
This is part of a sample that, as a whole, favours compounds with a hit. Of some 83,000 tested, about 20% had one in any assay. Activity calls are given as the source filed them. The calls were made as follows: active = growth percent below 10; inactive = the rest.
Possible outcomes: active, inactive

COMPOUND	GROUP_LABEL
Nc1c2c(nc3ccc(Br)cc13)CC(c1ccccc1)CC2=O (stereo not given)	inactive
CCNCCCn1c2c(c3ccc([N+](=O)[O-])cc3c1=O)C(=O)c1cc(OC)cnc1-2	active
COc1cccc(-c2nn(-c3ccccc3)cc2-c2ccnc(NCCCNS(=O)(=O)c3ccc(C(F)(F)F)cc3)c2)c1	inactive
Cn1cc(-c2csc(-c3c[nH]c4ccccc34)n2)c2cccnc21	inactive
Nc1ccc(Cl)cn1	inactive
Cn1cc(-c2nc(-c3c[nH]c4ncccc34)cs2)c2ccccc21	inactive
Cc1ccc(-c2nc([P+](c3ccccc3)(c3ccccc3)c3ccccc3)c(N3C[C@H]4C[C@H](C3)c3cccc(=O)n3C4)o2)cc1	inactive
CCOC(=O)c1ccc2c(c1)[n+](=O)c(C(=O)C1CCCS1)c(C(F)(F)F)n2[O-] (stereo not given)	active
COc1cc(-c2cc3ncccc3c3[nH]c(=O)c4cccnc4c23)cc(OC)c1OC	inactive
O=C(c1ccccc1)C(CN1CCOCC1)c1ccccc1 (stereo not given)	inactive
